HDQ-p53UGA213 (Maxfold): recorded values
Tested on: p53 R213* UGA premature termination codon in HDQ-P1 mammary carcinoma cells
ASSAY EXPLANATION: HDQ-p53UGA213 readthrough assay (full-length p53, MSD immunoassay)
Type: cell-based, human
PARTICULARS: maximum readthrough activity above background; average ± SD
Please append the unit to your numeric answer.

Query for p53 R213* UGA premature termination codon in HDQ-P1 mammary carcinoma cells: what HDQ-p53UGA213 (Maxfold) does the record show for CN[C@@H]1[C@@H](O)[C@@H](O[C@@H]2[C@@H](O)[C@H](O[C@H]3O[C@H]([C@H](C)N)CC[C@H]3N)[C@@H](N)C[C@H]2N)OC[C@]1(C)O [Gentamicin C2a, gentamicin C2a] ? 4 ± 1 fold

Query for p53 R213* UGA premature termination codon in HDQ-P1 mammary carcinoma cells: what HDQ-p53UGA213 (Maxfold) does the record show for CN[C@@H]1[C@@H](O)[C@@H](O[C@@H]2[C@@H](O)[C@H](O[C@H]3O[C@H]([C@@H](C)O)[C@@H](O)[C@H](O)[C@H]3N)[C@@H](N)C[C@H]2N)OC[C@]1(C)O [G418, reference compound] ? 44 ± 19 fold

Query for p53 R213* UGA premature termination codon in HDQ-P1 mammary carcinoma cells: what HDQ-p53UGA213 (Maxfold) does the record show for CN[C@@H]1[C@@H](O)[C@@H](O[C@@H]2[C@@H](O)[C@H](O[C@H]3O[C@H]([C@@H](C)NC)CC[C@H]3N)[C@@H](N)C[C@H]2N)OC[C@]1(C)O [Gentamicin C1, gentamicin C1] ? 5 ± 3 fold

====

ASSAY EXPLANATION: Pharmacokinetics of aminoglycosides in the rat
PARTICULARS: plasma, sc, 10 mg/kg
REPORTED PROPERTY: half-life (h)
Output spec: scalar in h, unitless text.

Recorded half-life for CN[C@@H]1[C@@H](O)[C@@H](O[C@@H]2[C@@H](O)[C@H](O[C@H]3O[C@H](CO)[C@@H](O)[C@H](O)[C@H]3N)[C@@H](N)C[C@H]2N)OC[C@]1(C)O (stereo in doubt) , please? 2.6

====

System: activated human peripheral blood mononuclear cells (PBMCs)
ASSAY EXPLANATION: Cytotoxicity in stimulated PBMCs (CellTitre-Glo ATP)
PARTICULARS: read-out: Stimulated PBMC CC50; individual determinations (S1 File); listed as PTC-0302307 (C1)
Procedure: When considering compounds for potential readthrough therapy it is important to monitor cellular and animal safety. In order to determine the most promising compounds to further evaluate in in vivo safety, we measured cytotoxicity in two different cell types. […] Frozen human Peripheral Blood Mononuclear Cells (PBMCs) were obtained from […] […] Cell viability was determined using a chemiluminescent assay to monitor adenosine triphosphate (ATP) levels in live cells (CellTitre-Glo; CTG; Promega, Cat#G7571). […]
REPORTED PROPERTY: CC50

Query for activated human peripheral blood mononuclear cells (PBMCs): what CC50 does the record show for CN[C@@H]1[C@@H](O)[C@@H](O[C@@H]2[C@@H](O)[C@H](O[C@H]3O[C@H]([C@@H](C)NC)CC[C@H]3N)[C@@H](N)C[C@H]2N)OC[C@]1(C)O ? > 1000 µM

====

System: zebrafish neuromasts (hair cells)
ASSAY EXPLANATION: Neuromast toxicity assay (DASPEI staining)
PARTICULARS: read-out: Neuromast CC50; individual determinations (S1 File)
CC50: recorded values
Output spec: scalar in µM, unitless text.

COMPOUND | MEASURE UNIT | MEAS VALUE
C[C@@H](O)C1O[C@H](O[C@@H]2C(N)C[C@@H](NC(=O)[C@@H](O)CCN)[C@@H](O)C2O[C@@H]2O[C@H](CN)[C@H](O)C2O)[C@@H](N)C(O)[C@@H]1O (some centres unmarked) [NB84, reference compound] | µM | 7.8

Lab note: next compound to report on.
Recorded CC50 for CN[C@@H]1[C@@H](O)[C@@H](O[C@@H]2[C@@H](O)[C@H](O[C@H]3O[C@H]([C@@H](C)O)[C@@H](O)[C@H](O)[C@H]3N)[C@@H](N)C[C@H]2N)OC[C@]1(C)O [G418, reference compound] , please? 3.6

These measurements were taken from paper PMC6201930.
